Taken from ChEMBL document CHEMBL1132559.

Tested on: Serotonin transporter (Rattus norvegicus)
protocol.text: Displacement of [3H]-citalopram from rat forebrain membrane serotonin transporter at 10e-7 M
reported.property: inhibition (%)
# number only, unit % dropped from output

Use these answered entries as a reference point.
[
  {
    "compound": "CC(CN1CCN(c2cccc(Cl)c2)C(C)C1)Cn1nc2ccccn2c1=O (configuration not stated)",
    "quantitative.readout": 6
  },
  {
    "compound": "CC(CN1CCN(c2cccc(Cl)c2)CC1)Cn1nc2ccccn2c1=O (configuration not stated)",
    "quantitative.readout": 4
  },
  {
    "compound": "CC1CN(c2cccc(Cl)c2)CCN1CCCn1nc2ccccn2c1=O (configuration not stated)",
    "quantitative.readout": 45
  },
  {
    "compound": "CN(CCCn1nc2ccccn2c1=O)CCNc1cccc(Cl)c1",
    "quantitative.readout": 15
  }
]

Data request, read-out inhibition, for O=c1n(CCCNCCNc2cccc(Cl)c2)nc2ccccn12 10

Also CC(CCn1nc2ccccn2c1=O)N1CCN(c2cccc(Cl)c2)CC1 (configuration not stated) , if possible. 63

Queued: CN(CCNCCCn1nc2ccccn2c1=O)c1cccc(Cl)c1 23

Now try CC1CN(CCCn2nc3ccccn3c2=O)CCN1c1cccc(Cl)c1 (configuration not stated) . 15

Try this compound next: O=C1CN(CCCn2nc3ccccn3c2=O)CCN1c1cccc(Cl)c1 2

====

tgt: Adrenergic receptor alpha-1 (Rattus norvegicus, UniProt P15823+P23944+P43140)
protocol.text: Compound was tested for the inhibition of [3H]-prazosin binding to Alpha-1 adrenergic receptor
Format: protein assay
reported.property: IC50 (nM)
The reply should be a number in nM, with the unit left off.

// below: answered compounds
[
  {
    "compound": "CC(CN1CCN(c2cccc(Cl)c2)CC1)Cn1nc2ccccn2c1=O (centres undefined)",
    "tgt": "Adrenergic receptor alpha-1 (Rattus norvegicus, UniProt P15823+P23944+P43140)",
    "IC50 / nM": 531
  },
  {
    "compound": "CCC1CN(c2cccc(Cl)c2)CCN1CCCn1nc2ccccn2c1=O (centres undefined)",
    "tgt": "Adrenergic receptor alpha-1 (Rattus norvegicus, UniProt P15823+P23944+P43140)",
    "IC50 / nM": 493
  }
]

Consider the compound CC(CCn1nc2ccccn2c1=O)N1CCN(c2cccc(Cl)c2)CC1 (centres undefined) and give its measured IC50. 627

Thanks! And CC1CN(c2cccc(Cl)c2)CCN1CCCn1nc2ccccn2c1=O (centres undefined) ? 471

====

The following compounds are shown together with reported inhibition values.
tgt: Norepinephrine transporter (Rattus norvegicus) (UniProt Q9WTR4)
Sequence (Q9WTR4 as listed by the source): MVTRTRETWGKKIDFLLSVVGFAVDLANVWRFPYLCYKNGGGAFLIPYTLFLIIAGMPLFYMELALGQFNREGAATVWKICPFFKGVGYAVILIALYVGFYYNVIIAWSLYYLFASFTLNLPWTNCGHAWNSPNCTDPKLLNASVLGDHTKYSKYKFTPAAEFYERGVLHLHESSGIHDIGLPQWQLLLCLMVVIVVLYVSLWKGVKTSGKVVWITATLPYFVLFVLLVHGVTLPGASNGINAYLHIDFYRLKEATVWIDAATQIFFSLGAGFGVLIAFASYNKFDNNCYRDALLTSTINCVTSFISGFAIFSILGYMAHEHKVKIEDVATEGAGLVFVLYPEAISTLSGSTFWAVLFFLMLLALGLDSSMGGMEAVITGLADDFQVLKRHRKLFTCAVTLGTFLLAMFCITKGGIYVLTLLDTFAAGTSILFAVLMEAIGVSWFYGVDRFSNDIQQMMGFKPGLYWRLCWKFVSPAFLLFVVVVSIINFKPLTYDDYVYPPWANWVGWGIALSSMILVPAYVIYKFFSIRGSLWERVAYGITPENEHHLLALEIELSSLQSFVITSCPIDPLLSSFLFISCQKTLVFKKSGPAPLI
protocol.text: Inhibition of [3H]desmethylimipramine binding to […] of rat cortical membrane at 10e-7 M
Express the result in % but write the number alone.

Please review the following examples before continuing.
[
  {
    "compound": "O=c1n(CCCN2CCN(c3cccc(Cl)c3)CC2)nc2ccccn12",
    "tgt": "Norepinephrine transporter (Rattus norvegicus) (UniProt Q9WTR4)",
    "inhibition (%)": 0
  },
  {
    "compound": "CC1C(=O)N(c2cccc(Cl)c2)CCN1CCCn1nc2ccccn2c1=O (stereo not drawn)",
    "tgt": "Norepinephrine transporter (Rattus norvegicus) (UniProt Q9WTR4)",
    "inhibition (%)": 0
  },
  {
    "compound": "CC(CN1CCN(c2cccc(Cl)c2)C(C)C1)Cn1nc2ccccn2c1=O (stereo not drawn)",
    "tgt": "Norepinephrine transporter (Rattus norvegicus) (UniProt Q9WTR4)",
    "inhibition (%)": 0
  },
  {
    "compound": "CC(CCn1nc2ccccn2c1=O)N1CCN(c2cccc(Cl)c2)CC1 (stereo not drawn)",
    "tgt": "Norepinephrine transporter (Rattus norvegicus) (UniProt Q9WTR4)",
    "inhibition (%)": 0
  },
  {
    "compound": "O=C1CN(CCCn2nc3ccccn3c2=O)CCN1c1cccc(Cl)c1",
    "tgt": "Norepinephrine transporter (Rattus norvegicus) (UniProt Q9WTR4)",
    "inhibition (%)": 0
  }
]

What inhibition value was documented for this compound, CC1CN(CCCn2nc3ccccn3c2=O)CCN1c1cccc(Cl)c1 (stereo not drawn) ? 0

Next entry: CN(CCNCCCn1nc2ccccn2c1=O)c1cccc(Cl)c1 0

Also check CC1CN(c2cccc(Cl)c2)CCN1CCCn1nc2ccccn2c1=O (stereo not drawn) 2

Moving on to O=c1n(CCCNCCNc2cccc(Cl)c2)nc2ccccn12 0

Queued: CN(CCCn1nc2ccccn2c1=O)CCNc1cccc(Cl)c1 4

CC(CN1CCN(c2cccc(Cl)c2)CC1)Cn1nc2ccccn2c1=O (stereo not drawn) , same question. 0

Now give it for CC1CN(CCCn2nc3ccccn3c2=O)C(C)(C)CN1c1cccc(Cl)c1 (stereo not drawn) too. 0

Now the compound CCC1CN(c2cccc(Cl)c2)CCN1CCCn1nc2ccccn2c1=O (stereo not drawn) 0

====

tgt: D(2) dopamine receptor (Rattus norvegicus)
protocol.text: Displacement of [3H]sulpiride from rat striatal membrane Dopamine receptor D2 at 10e-7 M
# binarize inhibition: threshold 4% inclusive, high side Criterion met, low side Criterion not met

Take a look at these entries with their results.
[
  {
    "compound": "CC(CN1CCN(c2cccc(Cl)c2)CC1)Cn1nc2ccccn2c1=O (stereo not drawn)",
    "class": "Criterion not met"
  },
  {
    "compound": "CC1CN(CCCn2nc3ccccn3c2=O)C(C)(C)CN1c1cccc(Cl)c1 (stereo not drawn)",
    "class": "Criterion not met"
  },
  {
    "compound": "O=c1n(CCCNCCNc2cccc(Cl)c2)nc2ccccn12",
    "class": "Criterion not met"
  },
  {
    "compound": "CC1CN(CCCn2nc3ccccn3c2=O)CCN1c1cccc(Cl)c1 (stereo not drawn)",
    "class": "Criterion not met"
  },
  {
    "compound": "O=C1CN(CCCn2nc3ccccn3c2=O)CCN1c1cccc(Cl)c1",
    "class": "Criterion not met"
  }
]

Would you say CN(CCCn1nc2ccccn2c1=O)CCNc1cccc(Cl)c1 shows inhibition at minimum 4%? Criterion not met

What about this compound? CC(CN1CCN(c2cccc(Cl)c2)C(C)C1)Cn1nc2ccccn2c1=O (stereo not drawn) Criterion not met

Similarly, O=c1n(CCCN2CCN(c3cccc(Cl)c3)CC2)nc2ccccn12 ? Criterion met

Quick one: CC(CCn1nc2ccccn2c1=O)N1CCN(c2cccc(Cl)c2)CC1 (stereo not drawn) Criterion not met

Please give the result for CCC1CN(c2cccc(Cl)c2)CCN1CCCn1nc2ccccn2c1=O (stereo not drawn) too. Criterion met

Now try CC1CN(c2cccc(Cl)c2)CCN1CCCn1nc2ccccn2c1=O (stereo not drawn) . Criterion met

====

Recorded inhibition, one value per entry.
tgt: Histamine H1 receptor (Bos taurus) (UniProt P30546)
Sequence (P30546 whole entry): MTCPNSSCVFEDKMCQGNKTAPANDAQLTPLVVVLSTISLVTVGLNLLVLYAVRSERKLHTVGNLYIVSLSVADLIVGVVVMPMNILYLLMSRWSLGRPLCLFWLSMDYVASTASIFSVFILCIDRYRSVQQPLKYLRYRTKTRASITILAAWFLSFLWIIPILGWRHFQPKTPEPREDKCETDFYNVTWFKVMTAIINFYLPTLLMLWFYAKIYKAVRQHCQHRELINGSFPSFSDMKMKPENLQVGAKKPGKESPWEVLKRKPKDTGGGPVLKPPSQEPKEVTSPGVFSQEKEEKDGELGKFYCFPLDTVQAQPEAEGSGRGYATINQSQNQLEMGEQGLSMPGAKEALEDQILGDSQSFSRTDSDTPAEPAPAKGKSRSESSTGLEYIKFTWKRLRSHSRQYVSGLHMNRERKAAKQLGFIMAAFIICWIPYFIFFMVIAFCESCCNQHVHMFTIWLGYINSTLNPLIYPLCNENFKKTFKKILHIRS
protocol.text: Inhibition of [3H]pyrilamine binding to Histamine H1 receptor of bovine cerebellar membrane at 10e-7 M
Return type: number; implicit unit %.

// known answers, use as guide
[
  {
    "compound": "CN(CCNCCCn1nc2ccccn2c1=O)c1cccc(Cl)c1",
    "measurement.units": "%",
    "quantitative.readout": 0
  },
  {
    "compound": "CN(CCCn1nc2ccccn2c1=O)CCNc1cccc(Cl)c1",
    "measurement.units": "%",
    "quantitative.readout": 0
  },
  {
    "compound": "CC1CN(CCCn2nc3ccccn3c2=O)C(C)(C)CN1c1cccc(Cl)c1 (stereo not drawn)",
    "measurement.units": "%",
    "quantitative.readout": 9
  },
  {
    "compound": "CC1C(=O)N(c2cccc(Cl)c2)CCN1CCCn1nc2ccccn2c1=O (stereo not drawn)",
    "measurement.units": "%",
    "quantitative.readout": 4
  },
  {
    "compound": "CC(CN1CCN(c2cccc(Cl)c2)CC1)Cn1nc2ccccn2c1=O (stereo not drawn)",
    "measurement.units": "%",
    "quantitative.readout": 7
  },
  {
    "compound": "O=C1CN(CCCn2nc3ccccn3c2=O)CCN1c1cccc(Cl)c1",
    "measurement.units": "%",
    "quantitative.readout": 2
  },
  {
    "compound": "CC1CN(CCCn2nc3ccccn3c2=O)CCN1c1cccc(Cl)c1 (stereo not drawn)",
    "measurement.units": "%",
    "quantitative.readout": 7
  },
  {
    "compound": "CCC1CN(c2cccc(Cl)c2)CCN1CCCn1nc2ccccn2c1=O (stereo not drawn)",
    "measurement.units": "%",
    "quantitative.readout": 14
  }
]

Look up inhibition: O=c1n(CCCN2CCN(c3cccc(Cl)c3)CC2)nc2ccccn12 5

// next record CC(CN1CCN(c2cccc(Cl)c2)C(C)C1)Cn1nc2ccccn2c1=O (stereo not drawn) 12

// repeat for O=c1n(CCCNCCNc2cccc(Cl)c2)nc2ccccn12 and report 0

And CC1CN(c2cccc(Cl)c2)CCN1CCCn1nc2ccccn2c1=O (stereo not drawn) ? 13

Next compound: CC(CCn1nc2ccccn2c1=O)N1CCN(c2cccc(Cl)c2)CC1 (stereo not drawn) 31
